- Assay details: qHTS of pediatric cancer cell lines to identify multiple opportunities for drug repurposing: Confirmatory screen for SK-N-MC cells (AID 1347111);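 note: potency is the fitted concentration of half-maximal effect; cells exposed to compound for 48 h before the readout; nearly all actives have a fitted effect of over 70% in size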
- Stated conditions: SK-N-MC cell viability; series mostly up to 45.9 µM
Results filed as inconclusive are left out. The source made the active and inactive calls. Calls come from the whole dose curve; as a rule, active = well fitted cell-killing curve with a large enough effect; inconclusive = small, poorly fitted or top-dose-only effect; inactive = no such curve, though single readings can be large or run the other way.

{"Substance smiles": "O=C(Nc1ncc(-c2cc(C(F)F)nn2-c2c(Cl)cccc2Cl)s1)C1CC1", "Potency": "414 nM (active)"}
{"Substance smiles": "O=C(Nc1cn[nH]c1-c1nc2ccc(CN3CCOCC3)cc2[nH]1)NC1CC1", "Potency": "1650 nM (active)"}
{"Substance smiles": "CC1(C)OC2=C(C(=O)c3ccccc3C2=O)[C@H](NCc2ccccc2)[C@H]1O", "Potency": "5220 nM (active)"}
{"Substance smiles": "COc1cc2c(Oc3ccc(-c4cnc(Nc5ccc(F)cc5)n(C)c4=O)cc3F)ccnc2cc1OCCCN1CCOCC1", "Potency": "2930 nM (active)"}
{"Substance smiles": "CC(C)(C)c1cc(C(C)(C)C)c(NC(=O)c2c[nH]c3ccccc3c2=O)cc1O", "Potency": "14700 nM (active)"}
